Biological target: hTPC2 (Homo sapiens)
Construct: full-length with C-terminal EGFP, plasmid pSAT-hTPC2-EGFP; transiently expressed in vacuoles of Arabidopsis thaliana tpc1-2 mutant mesophyll protoplasts; dimer
Sequence (Q8NHX9 whole entry): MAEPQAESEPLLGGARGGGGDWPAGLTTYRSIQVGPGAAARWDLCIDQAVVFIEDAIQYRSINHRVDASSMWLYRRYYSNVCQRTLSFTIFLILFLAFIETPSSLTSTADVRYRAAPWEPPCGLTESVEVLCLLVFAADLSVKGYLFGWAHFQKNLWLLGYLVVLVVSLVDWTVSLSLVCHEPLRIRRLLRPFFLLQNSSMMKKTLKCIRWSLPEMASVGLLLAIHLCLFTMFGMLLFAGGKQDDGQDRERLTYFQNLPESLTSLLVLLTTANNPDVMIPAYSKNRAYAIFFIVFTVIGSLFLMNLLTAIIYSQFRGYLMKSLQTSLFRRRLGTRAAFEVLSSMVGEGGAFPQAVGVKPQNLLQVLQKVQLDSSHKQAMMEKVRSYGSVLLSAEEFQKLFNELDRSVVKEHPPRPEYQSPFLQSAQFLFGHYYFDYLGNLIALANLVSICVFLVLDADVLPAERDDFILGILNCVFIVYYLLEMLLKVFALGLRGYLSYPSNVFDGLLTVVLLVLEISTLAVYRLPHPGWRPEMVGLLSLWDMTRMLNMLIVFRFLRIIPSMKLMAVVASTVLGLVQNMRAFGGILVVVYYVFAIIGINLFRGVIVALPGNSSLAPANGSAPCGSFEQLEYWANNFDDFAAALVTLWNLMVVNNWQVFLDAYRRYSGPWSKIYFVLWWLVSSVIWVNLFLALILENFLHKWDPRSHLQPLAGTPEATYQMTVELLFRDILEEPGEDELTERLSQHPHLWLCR
Test: whole-vacuole patch clamp, dose-response of current inhibition
Settings: read-out: apparent affinity constant
Endpoint: IC50 (µM)
Write the answer as a number in µM, unit excluded.

So for "O=C1C[C@@H](c2ccc(O)cc2)Oc2cc(O)cc(O)c21" , the logged IC50 turned out to be 180

Reference source for all entries: paper PMC5505983
